Experiment: chemical genetic growth profiling, strain panel (AID 1159580);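 further: tested at 20 µM; growth read once vehicle control cultures reached saturation at 30 °C; 1 = growth at the plate median or of vehicle wells; lower values mean less growth of the strain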
Conditions: S. cerevisiae deletion strains, growth OD, locus YGL227W, strain vid30, active compounds read low
Hit rate of the full screen: of about 5,500 compounds, about 2,000 (36%) were called active. Inconclusive results (about 18%) are left out. The list shows a part of the results.
MEASUREMENT_LABEL: normalized growth

Recorded normalized growth, per entry:
>>> reported_measurement("C/C=C/CC(C)C(O)C1C(=O)NC(CC)C(=O)N(C)CC(=O)N(C)C(CC(C)C)C(=O)NC(C(C)C)C(=O)N(C)C(CC(C)C)C(=O)NC(C)C(=O)NC(C)C(=O)N(C)C(CC(C)C)C(=O)N(C)C(CC(C)C)C(=O)N(C)C(C(C)C)C(=O)N1C (stereo not drawn)")
"1.02 (inactive)"
>>> reported_measurement("CC(C)(C)NCC(O)COc1cccc2c1C[C@H](O)[C@H](O)C2 (stereo partly drawn)")
"1.01 (inactive)"
>>> reported_measurement("C[C@@H]1CC[C@@]23CCC4(C)[C@@](C=CC5[C@@]6(C)CC[C@H](O)C(C)(C)C6CC[C@]54C)(OC2=O)C3[C@H]1C (stereo partly drawn)")
"1 (inactive)"
>>> reported_measurement("CC(=O)O[C@@H]1CC2C(C)(CC[C@H](O)C2(C)C)C2CC[C@]3(C)C(=CC(=O)O[C@H]3c3ccoc3)C21C (stereo partly drawn)")
"0.994 (inactive)"
>>> reported_measurement("CC(C)c1cccc(C(C)C)c1O")
"0.988 (inactive)"
>>> reported_measurement("CC(C)c1cccc(O)c(=O)c1")
"0.0687 (active)"
>>> reported_measurement("C[C@@H]1CC[C@@]23CCC4(C)[C@@](C=CC5[C@@]6(C)CCC(=O)C(C)(C)C6CC[C@]54C)(OC2=O)C3[C@H]1C (stereo partly drawn)")
"0.983 (inactive)"

Record summary for CNC[C@H](O)c1cccc(O)c1 : reported normalized growth = 0.971 (inactive)
